SUBJECT OF TEST: T1, full length human Shh expressed on the cell surface (human, UniProt Q15465 24-462)
T1 construct: whole, on cells; also called native human Shh; Shh-FL
ASSAY OVERVIEW: FMAT, hybridoma supernatant on 293T cells transiently expressing human Shh
FL1 X COUNT overview

Please give the measured FL1 X COUNT for this binder: 1G1 (antibody, V domains shown, fully human XenoMouse hybridoma antibody; also called MAb 1G1) VH: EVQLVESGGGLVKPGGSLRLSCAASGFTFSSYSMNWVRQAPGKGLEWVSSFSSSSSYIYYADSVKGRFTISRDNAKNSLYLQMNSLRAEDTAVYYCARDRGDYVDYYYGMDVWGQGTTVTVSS VL: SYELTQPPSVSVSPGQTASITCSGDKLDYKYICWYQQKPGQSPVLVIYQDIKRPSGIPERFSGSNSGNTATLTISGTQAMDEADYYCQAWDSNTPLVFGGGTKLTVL
585000

Please give the measured FL1 X COUNT for this binder: 1A5 (antibody, V domains shown, fully human XenoMouse hybridoma antibody; tested as hybridoma supernatant and as purified antibody; also called MAb 1A5) VH: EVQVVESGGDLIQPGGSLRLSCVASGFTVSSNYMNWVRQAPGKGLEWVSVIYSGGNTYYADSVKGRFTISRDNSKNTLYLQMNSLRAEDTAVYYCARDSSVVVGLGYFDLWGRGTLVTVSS VL: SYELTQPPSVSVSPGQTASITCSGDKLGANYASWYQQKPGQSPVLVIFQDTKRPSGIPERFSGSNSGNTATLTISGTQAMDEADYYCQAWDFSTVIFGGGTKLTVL
304000

Please give the measured FL1 X COUNT for this binder: 1H12 (antibody, V domains shown, fully human XenoMouse hybridoma antibody; tested as hybridoma supernatant and as purified antibody; also called MAb 1H12) VH: QVQLVQSGAEVKKPGASVKVSCKASGYTFTGYYMHWVRQAPGQGLEWVGWFNPNSGGTNCAQKFQGRVTMTRDTSISTAYMELSRLRSDDTAVYYCAREAVESYYYGLDVWGQGTTVTVSS VL: QSVVTQPPSASGTPGQRITISCSGSSSNIGSNYVYWYHQLPGSAPNLLIYRNNQRPSGVPDRFSGSKSGTSASLAISGLRSEDEADYFCAVWDDSLRGVVFGGGTKLTVL
1.11e+06
